Data provenance: PubChem BioAssay (NCI)

- System: OVCAR-3 ovarian
- Protocol: NCI-60 one-dose screen, 48 h (100 = growth as untreated, 0 = no growth, -100 = all killed)
- Stated Conditions: 10 µM
Compounds without any hit were thinned out: in the full panel of roughly 83,000, 20% have a hit.
Readout Label: growth (%)
Please respond with the number in % and leave the unit unwritten.

Check out these entries, answers already filled in.
| Molecule | Readout Label | Assay Result |
| --- | --- | --- |
| COc1ccc(OC)c(-c2cc(-c3c[nH]c4ccccc34)nc(N)c2C#N)c1 | growth | -23.5 |
| COc1cc(Cn2c(C(F)(F)F)cc3c(Cl)ncnc32)ccn1 | growth | -52.4 |
| O=C(Cc1ccc2c(c1)CN(C1CCC(=O)NC1=O)C2=O)NCc1cccc2ccccc12 (centres undefined) | growth | -22.3 |
| COc1cccc(C(N)=Nc2ccc(OCCCCCCn3cncn3)cc2)c1 | growth | 16.2 |
| CN(C)c1ccc(/C=C/c2nc3ccccc3c(=O)n2CC(=O)Nc2ccc(Cl)cc2)cc1 | growth | 42.2 |

Please look up its growth: "Cc1ccc2nc(-c3ccc(-c4nnc(SCC(=O)Nc5ccc(Cl)cc5)o4)cc3)[nH]c2c1"
24

Please look up its growth: "O=C(CNc1nc(-c2ccccc2)cs1)Nc1ccc([N+](=O)[O-])cc1Cl"
23.4

Please look up its growth: "CCCn1c(O)c(N=Nc2nc(-c3cc4ccccc4oc3=O)cs2)c2cc(Br)ccc21"
100

Please look up its growth: "COc1ccc2ncc(C#Cc3cncc(C(=O)Nc4ccc(CN5CCN(C)CC5)c(C(F)(F)F)c4)c3)n2n1"
-93.2

###

- Test system: DU-145 prostate
- Protocol: NCI-60 one-dose screen, 48 h
- Stated Conditions: 10 µM
The panel holds about 83,000 compounds, 20% with a hit somewhere; the sample as a whole holds those more often. Activity calls are given as the source filed them. Rule for the calls: active = growth percent below 10; inactive = the rest.
The reply should be one of these categories: active, inactive

Answered examples (3):
| Compound | Class Name |
| --- | --- |
| CN1C/C(=C\c2ccc(O)cc2O)c2[o+]c3cc(O)ccc3cc2C1 | inactive |
| COc1ccc(NC(=O)Cn2c(/C=C/c3ccc(N(C)C)cc3)nc3ccccc3c2=O)cc1 | active |
| CC(=C(c1ccc(OCCCN(C)C)cc1)c1ccc(OCCCN(C)C)cc1)c1ccccc1 | active |

Query compound follows.
# lookup: test call for CO[C@@H]1CSSC1Cn1nc(-c2ccc(Oc3ccccc3)cc2)c2c(N)ncnc21 (some centres undefined)
inactive

###

- Tested on: KM12 colon
- Protocol: NCI-60 one-dose screen, 48 h
- Stated Conditions: 10 µM
About 83,000 compounds went through this panel and 20% of them were active in at least one assay; those are over-represented in the sample as a whole. Active and inactive are the calls of the source. How the source made its calls: active means growth percent below 10; inactive means the rest.
The reply should be one of these categories: active, inactive

Answered examples (5):
| Compound | Class Name |
| --- | --- |
| O=C(Cn1cc(CSc2nnc3oc4ccccc4n23)nn1)Nc1cccc(Cl)c1 | inactive |
| O=C(Nc1ccc(I)cc1)Nc1nc2ccc([N+](=O)[O-])cc2s1 | active |
| COc1ccc(/C=C/C(=O)c2ccc(NC(=O)CN3C(=O)NC(C)(c4ccccc4)C3=O)cc2)cc1 (stereo not drawn) | inactive |
| CC(=O)Nc1ccc(-c2cn(-c3cccc(C(=O)Nc4ccc(Cl)c(C(F)(F)F)c4)c3)nn2)cn1 | active |
| COC(=O)C[C@](O)(CCCC(C)(C)O)C(=O)O[C@H]1C(OC)=C[C@@]23CCC(=O)N2CCc2cc4c(cc2[C@@H]13)OCO4 | inactive |

# lookup: test call for "O=C(Nc1ccc(Cl)c(C(F)(F)F)c1)c1cncc(C#Cc2cnc3ccc(N4CCOCC4)nn23)c1"
active

# lookup: test call for "CCOC(=O)CNC(=O)CN(Cc1ccccc1)C(=O)[C@@]1(C)CCC[C@]2(C)[C@H]3CC4C(C(C)C)=C[C@]3(CC[C@H]21)[C@@H]1C(=O)CCC(=O)[C@H]41"
inactive

# lookup: test call for "COc1ccc(-c2nc(S(=O)(=O)c3ccccc3)c(S(C)(=O)=O)o2)cc1"
inactive

###

- System: OVCAR-4 ovarian
- Protocol: NCI-60 one-dose screen, 48 h
- Stated Conditions: 10 µM
The panel holds about 83,000 compounds, 20% with a hit somewhere; the sample as a whole holds those more often. Calls of active or inactive are those of the source. Rule for the calls: active = growth percent below 10; inactive = the rest.
The reply should be one of these categories: true (1) for active, false (0) for inactive

| Compound | Class Name |
| --- | --- |
| CCN1CCN(Cc2ccc(C(=O)Nc3cccc(-c4cn(-c5ccc6oc(=O)ccc6c5)nn4)c3)cc2C(F)(F)F)CC1 | true (1) |
| CC(=O)Nc1ccc(-c2cn(-c3cccc(C(=O)Nc4cc(CN5CCOCC5)cc(C(F)(F)F)c4)c3)nn2)cn1 | true (1) |
| COc1ccc2ncc(C#Cc3cncc(C(=O)Nc4ccc(CN5CCN(C)CC5)c(C(F)(F)F)c4)c3)n2n1 | true (1) |

# lookup: test call for "CN(CCO)c1oc(-c2ccccc2)nc1[P+](c1ccccc1)(c1ccccc1)c1ccccc1"
false (0)

# lookup: test call for "OCCNc1oc(-c2ccccc2)nc1[P+](c1ccccc1)(c1ccccc1)c1ccccc1"
false (0)

# lookup: test call for "CCCCCCCCCCCCCCCCCCCC(=O)NCCc1c[nH]c2ccc(OC(=O)NOCCOCCOCCOCCOCCOCCOCCOCCOCCOCCOCCOCCOCCOCCOCCOCCOCCOCCOCCOCCOCCOCCOC)cc12"
false (0)

# lookup: test call for "O=C1NC(=NC23CC4CC(CC(C4)C2)C3)N/C1=C\c1ccc2ncsc2c1"
true (1)

# lookup: test call for "Cc1ccc(-c2nc3ccc(C(=O)N=Nc4c(O)[nH]c5ccc(Br)cc45)cc3[nH]2)cc1"
false (0)

# lookup: test call for "CC(=O)Nc1ccc(-c2cn(-c3cccc(C(=O)Nc4cc(C(F)(F)F)cc(C(F)(F)F)c4)c3)nn2)cn1"
true (1)

# lookup: test call for "CC[C@@]1(O)C(=O)OCc2c1cc1n(c2=O)Cc2c-1nc1cc(F)c(C)c3c1c2[C@@H](N)CC3"
true (1)

# lookup: test call for COc1cc(/C=C/C(=O)c2ccc(NC(=O)CN3C(=O)NC(C)(c4ccccc4)C3=O)cc2)cc(OC)c1OC (configuration not stated)
false (0)

# lookup: test call for "Cc1ccc(-c2nc(Nc3ccccc3C(=O)O)c3ccccc3n2)cc1"
false (0)

# lookup: test call for "O=C(NO)c1ccc(CNc2nc(-c3ccccc3)c3ccccc3n2)cc1"
false (0)

# lookup: test call for "COc1cnc2c(c1)C(=O)c1c-2n(CCCNCCO)c(=O)c2cc(OC)c(OC)cc12"
false (0)

# lookup: test call for "CC1=C2C(=C[C@@](C)(CO)[C@@H]2O)/C(=N\N)[C@](C)(O)C12CC2"
true (1)

# lookup: test call for "O=C(N=Nc1c(O)[nH]c2ccc(Br)cc12)c1ccc2nc(-c3ccccc3)[nH]c2c1"
true (1)

# lookup: test call for "O=C1Nc2cc(-c3ccc(NC(=O)c4cccc([N+](=O)[O-])c4)cc3)ccc2/C1=C/c1ccc[nH]1"
false (0)

###

- Tested on: MOLT-4 leukemia
- Protocol: NCI-60 one-dose screen, 48 h (100 = growth as untreated, 0 = no growth, -100 = all killed)
- Stated Conditions: 10 µM
The panel holds about 83,000 compounds, 20% with a hit somewhere; the sample as a whole holds those more often.
In this section, each of the compounds is paired with its reported growth.
Please respond with the number in % and leave the unit unwritten.

Check out these entries, answers already filled in.
| Compound | Measurement Unit | growth |
| --- | --- | --- |
| Nc1nc(Nc2ccc(Cl)cc2)nn1Cc1cccc(Br)c1 | % | 20.1 |
| Cc1ccc2nc3c(nc2c1)c1cc(I)ccc1n3CCN(C)C | % | 10 |
| Cn1cc(/C=N/Nc2ccnc3cc(Cl)ccc23)c2ccccc21 | % | -32.1 |
| CCCCSc1nc(Nc2ccc(/C(C)=N/NC(N)=S)cc2)c(C#N)c(-c2ccc(OC)cc2)n1 | % | 67.7 |
| O=C(c1ccc(Cl)cc1)C1[C@H](c2ccc(Br)cc2)[C@@H](c2ccccc2)NC12C(=O)Nc1ccc(Br)cc12 (stereo partly specified) | % | -33 |

Pending compound:
Please look up its growth: "CCOC(=O)c1c(CSc2ccccc2)n(C)c2cc(CN(C)C)c(O)c(CN(C)C)c12"
49

###

- System: UO-31 renal
- Protocol: NCI-60 one-dose screen, 48 h (100 = growth as untreated, 0 = no growth, -100 = all killed)
- Stated Conditions: 10 µM
This is part of a sample that, as a whole, favours compounds with a hit. Of some 83,000 tested, about 20% had one in any assay.
In this section, each of the molecules is paired with its reported growth.
Please respond with the number in % and leave the unit unwritten.

| Molecule | Measurement Unit | growth |
| --- | --- | --- |
| COc1ccc(/C=N/N=C(\C)c2ccc3c(c2)Nc2ccccc2S3)cc1O | % | 47 |

Hi! What's the reported growth for "O=C(CSc1nnc(-c2ccc3nc(-c4ccccc4)[nH]c3c2)o1)Nc1ccc(Cl)cc1" on UO-31 renal?
40.1

Hi! What's the reported growth for "CC(=O)Nc1ccc(-n2cnc3cc(-c4ccc(O)cc4)ccc32)cc1C" on UO-31 renal?
35.5

Hi! What's the reported growth for "COc1ccsc1/C=N/NC(=O)c1[nH]c2ccc(Br)cc2c1-c1ccccc1" on UO-31 renal?
11.4

Hi! What's the reported growth for "CC(=C(c1ccc(OCCCN(C)C)cc1)c1ccc(OCCCN(C)C)cc1)c1ccccc1" on UO-31 renal?
-99.9

Hi! What's the reported growth for "NS(=O)(=O)c1ccc(N=Nc2c(O)n(CC(=O)Nc3ccccc3Br)c3ccccc23)cc1" on UO-31 renal?
14.4

Hi! What's the reported growth for "COc1ccc(C(=O)CSc2nnc(-c3c[nH]c4ccccc34)n2-c2ccccc2)cc1" on UO-31 renal?
32.6

Hi! What's the reported growth for "O=c1c2ccccc2nc(COc2ccccc2)n1/N=C/c1ccc(N2CCOCC2)cc1" on UO-31 renal?
69.3

Hi! What's the reported growth for COc1cc(C2CC(c3ccc(C)cc3)=Nc3c(N)nc(N)nc3N2)ccc1Oc1nc(Nc2ccc(F)cc2)nc(N(C)C)n1 (centres undefined) on UO-31 renal?
53.3
